Target: T1, human recombinant soluble CD73 protein (human, UniProt P21589 27-547)
T1 construct: also called huCD73; rhCD73
T1 sequence: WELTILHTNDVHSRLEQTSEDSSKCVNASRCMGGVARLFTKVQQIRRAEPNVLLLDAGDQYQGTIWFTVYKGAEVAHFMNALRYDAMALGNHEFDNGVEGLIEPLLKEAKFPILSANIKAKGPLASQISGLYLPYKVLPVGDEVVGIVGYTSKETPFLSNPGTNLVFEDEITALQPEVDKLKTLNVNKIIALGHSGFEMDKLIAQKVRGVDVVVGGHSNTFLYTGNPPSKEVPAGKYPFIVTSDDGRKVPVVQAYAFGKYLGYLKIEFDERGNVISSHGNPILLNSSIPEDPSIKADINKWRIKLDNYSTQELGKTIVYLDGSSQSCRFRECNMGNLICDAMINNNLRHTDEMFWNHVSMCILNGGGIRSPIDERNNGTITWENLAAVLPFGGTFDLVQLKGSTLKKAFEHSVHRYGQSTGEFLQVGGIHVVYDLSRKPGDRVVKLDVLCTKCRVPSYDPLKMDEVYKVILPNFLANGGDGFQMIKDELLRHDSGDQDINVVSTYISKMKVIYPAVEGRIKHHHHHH
Assay: SPR, Ab captured on Protein A, soluble huCD73 as analyte
Label 1 (yes) when kon is at or above 100000 M⁻¹ s⁻¹; otherwise label 0 (no).

Past entries and their recorded results:
binder | classAssignment
H0L1 (antibody, human IgG1, V domains shown, H0 VH limits counted by alignment with H1) VH: QVQLVQSGAEVKKPGASVKVSCKASGYTFTSYNMYWVRQAPGQRLEWMGYIDPYNGGSSYNLTFKGRVTITRDTSASTAYMELSSLRSEDTAVYYCARGYGNYKAWFAYWGQGTLVTVSS VL: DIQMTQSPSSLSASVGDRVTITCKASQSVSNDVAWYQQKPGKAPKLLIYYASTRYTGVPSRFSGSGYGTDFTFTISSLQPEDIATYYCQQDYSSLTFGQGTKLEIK | 1 (yes)
H3L1 (antibody, human IgG1, V domains shown) VH: QIQLVQSGAEVKKPGASVKVSCKASGYAFTSYNMYWVRQAPGQSLEWIGYIDPYNGGSSYNLTFKGKATITVDKSASTAYMELSSLRSEDTAVYYCARGYGNYKAWFAYWGQGTLVTVSS VL: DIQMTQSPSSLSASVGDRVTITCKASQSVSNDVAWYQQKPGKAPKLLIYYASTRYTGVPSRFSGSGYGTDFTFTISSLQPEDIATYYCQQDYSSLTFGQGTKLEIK | 0 (no)
H0L0 (antibody, human IgG1, V domains shown, variable-domain limits counted by alignment with H1 and L1) VH: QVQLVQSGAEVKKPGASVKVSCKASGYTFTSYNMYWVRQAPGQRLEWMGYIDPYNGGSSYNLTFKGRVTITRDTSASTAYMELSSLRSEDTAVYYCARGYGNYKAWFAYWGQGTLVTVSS VL: DIQMTQSPSSLSASVGDRVTITCKASQSVSNDVAWYQQKPGKAPKLLIYYASTRYTGVPSRFSGSGSGTDFTFTISSLQPEDIATYYCQQDYSSLTFGQGTKLEIK | 1 (yes)
H2L4 (antibody, human IgG1, V domains shown) VH: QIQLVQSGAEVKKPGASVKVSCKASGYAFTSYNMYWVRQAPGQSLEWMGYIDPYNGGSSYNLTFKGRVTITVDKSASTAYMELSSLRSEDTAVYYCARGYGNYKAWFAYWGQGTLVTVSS VL: DVQMTQSPSSLSASVGDRVTITCKASQSVSNDVAWYQQKPGKAPKLLIYYASTRYTGVPDRFSGSGYGTDFTFTISSLQPEDIATYFCQQDYSSLTFGQGTKLEIK | 1 (yes)
H3L3 (antibody, human IgG1, V domains shown) VH: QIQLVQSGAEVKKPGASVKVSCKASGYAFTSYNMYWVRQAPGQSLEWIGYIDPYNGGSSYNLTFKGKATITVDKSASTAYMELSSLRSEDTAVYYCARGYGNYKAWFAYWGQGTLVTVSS VL: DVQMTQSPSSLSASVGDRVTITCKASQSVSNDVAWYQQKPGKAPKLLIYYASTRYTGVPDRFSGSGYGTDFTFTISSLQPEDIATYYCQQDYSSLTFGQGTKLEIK | 0 (no)

Now for a further binder.
Is it the case that H0L3 (antibody, human IgG1, V domains shown, H0 VH limits counted by alignment with H1) VH: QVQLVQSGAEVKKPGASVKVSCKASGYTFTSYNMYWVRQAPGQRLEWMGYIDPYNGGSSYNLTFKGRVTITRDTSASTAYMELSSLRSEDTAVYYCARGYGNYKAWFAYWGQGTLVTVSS VL: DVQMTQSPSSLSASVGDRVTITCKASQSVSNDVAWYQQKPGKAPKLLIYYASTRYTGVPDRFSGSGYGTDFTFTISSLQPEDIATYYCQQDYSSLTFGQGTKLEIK has kon reaching or exceeding 100000 M⁻¹ s⁻¹?
1 (yes)
